experimental-target: HSF-PLA2 (extracellular PLA2 obtained from human synovial fluid) (Homo sapiens)
Construct: extracellular enzyme obtained from human synovial fluid; from tissue; host or cells: pooled human synovial fluid (0.1% v/v in the assay)
Sequence (P14555 21-144): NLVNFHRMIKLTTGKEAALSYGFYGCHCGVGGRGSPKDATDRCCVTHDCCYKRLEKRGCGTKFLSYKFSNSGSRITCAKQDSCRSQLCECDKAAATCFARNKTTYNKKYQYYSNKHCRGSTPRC
assay-notes: Assay for Inhibition of HSF-PLA2 In Vitro
Type: biochemical
experimental-setup: given as 50 % inhibition at the given concentration; 14C-oleate-labelled E. coli substrate, pH 7.3, 37° C., 30 minutes; read-out: % Inhib of HSF-PLA2: 50 (concentration) = IC50 (μM concentration that produces 50% inhibition of PLA2 activity)
Method: The PLA2 used in this test is the extracellular enzyme obtained from human synovial fluid (HSF-PLA2). The assay for HSF-PLA2 activity was a modification of the described method [Franson R., Dobrow R., Weiss, J., Elsbach P., and […]. […] The oleic acid zone (Rf value 0.95) and phospholipid zone (origin) were cut out, chopped into small pieces, shaken with 2 ml of ethanol-water (80 to 20, v/v) and 15 ml of Aquasol and counted for radioactivity. […]
IC50 values for the molecules below.
Answer format: number, then unit.

Would you please look over these solved cases?
structure-string: CCCCCCCCCCCCCCCCCCOc1cc(OCCCCCCc2cccc(O)c2O)cc(C(=O)O)c1
experimental-target: HSF-PLA2 (extracellular PLA2 obtained from human synovial fluid) (Homo sapiens)
endpoint-result: 1.1 µM

structure-string: CCCCCCCCCCOc1cc(OCCCOc2ccc(O)cc2)cc(C(=O)O)c1
experimental-target: HSF-PLA2 (extracellular PLA2 obtained from human synovial fluid) (Homo sapiens)
endpoint-result: 8.8 µM

structure-string: CCCCCCCCCCCCCCCCCCOc1cc(OCCCOc2ccccc2)cc(C(=O)O)c1
experimental-target: HSF-PLA2 (extracellular PLA2 obtained from human synovial fluid) (Homo sapiens)
endpoint-result: 1.4 µM

Ask: What does the record list as IC50 for `O=C(O)c1cc(OCCCOc2ccc(-c3ccccc3)cc2)cc(OCCCOc2ccc(-c3ccccc3)cc2)c1` ?
Result: 3 µM

Ask: What does the record list as IC50 for `CCCCCCCCCCCCCCCCCCOc1cc(OC(=O)C(c2ccccc2)c2ccccc2)cc(C(=O)O)c1` ?
Result: 0.3 µM

----------
experimental-target: HSF-PLA2 (extracellular PLA2 obtained from human synovial fluid) (Homo sapiens)
Construct: extracellular enzyme obtained from human synovial fluid; from tissue; host or cells: pooled human synovial fluid (0.1% v/v in the assay)
assay-notes: Assay for Inhibition of HSF-PLA2 In Vitro
Format: biochemical
experimental-setup: 10 μM; read-out: % Inhib of HSF-PLA2
Method: The PLA2 used in this test is the extracellular enzyme obtained from human synovial fluid (HSF-PLA2). The assay for HSF-PLA2 activity was a modification of the described method [Franson R., Dobrow R., Weiss, J., Elsbach P., and […]. […] The oleic acid zone (Rf value 0.95) and phospholipid zone (origin) were cut out, chopped into small pieces, shaken with 2 ml of ethanol-water (80 to 20, v/v) and 15 ml of Aquasol and counted for radioactivity. […]
observation-type: inhibition at 10 µM (%)
I only need the number, in %, no unit after it.

molecule: CCCCCCCCCCCCCCCCCCOc1cc(OCCCOc2ccc([S+](C)[O-])cc2)cc(C(=O)O)c1 (centres unmarked)
u: %
inhibition at 10 µM: 72
--
molecule: CCCCCCCCCCOc1cc(OCCCOc2ccc(OCc3ccccc3)cc2)cc(C(=O)O)c1
u: %
inhibition at 10 µM: 61
--
molecule: CCCCCCCCCCOc1cc(OCCCCCCc2cccc(O)c2O)cc(C(=O)OC)c1
u: %
inhibition at 10 µM: 22
--
molecule: CCCCCCCCCCCCCCOc1cc(OCCCOc2ccc(O)cc2)cc(C(=O)O)c1
u: %
inhibition at 10 µM: 75

Ask: What does the record list as inhibition at 10 µM for `CCCCCCCCCCCCCCCCCCOc1cc(OCCCOc2ccc(O)cc2)cc(C(=O)OC)c1` ?
Result: 2

Ask: What does the record list as inhibition at 10 µM for `CCCCCCCCCCCCCCCCCCOc1cccc(C(=O)O)c1OCCCOc1ccc(OCc2ccccc2)cc1` ?
Result: 91

Ask: What does the record list as inhibition at 10 µM for `CCCCCCCCCCCCCCCCCCOc1ccc(C(=O)O)c(OCCCOc2ccc(O)cc2)c1` ?
Result: 79

Ask: What does the record list as inhibition at 10 µM for `O=C(O)c1cc(OCCCOc2ccc(O)cc2)cc(OCCCOc2ccc(O)cc2)c1` ?
Result: 5

These data points were gathered from patent US5374772A.
